Assay: yeast display, Sf9 membrane polyspecificity reagent, FACS + sequencing; frameworks hold sequencing errors
measure: polyreactivity (PSR sort gate)

[
  {
    "residue codes": "QVQLVESGGGLVQAGGSLRLSCAASGRIFPGYGMGWYRQAPGKERELVASISVGGGSTYYADSVKGRFTISRDNAKNTVYLQMNSLKPEDTAVYYCAADPSPYGDEYDYWGQGTQVTVSS",
    "polyreactivity (PSR sort gate)": "low polyreactivity"
  },
  {
    "residue codes": "QVQLVESGGGLVQAGGSLRLSCAASGRTVVNAMGWYRQAPGKERELVAAISSNGGRTYYADSVKGRFTISRDNAKNTVYLQINSLKPEDTAVYYCAAGYIWFRKIQFDYWGQGTQVTVSS",
    "polyreactivity (PSR sort gate)": "high polyreactivity"
  },
  {
    "residue codes": "QVQLVESGGGLVQAGGSLRLSCAASGRTFMRNAMGLYRQAPGKERELVAAISRSGGSTYYADSVKGRFTISRDNAKNTVYLQMNSLKPEDTAVYYCAADDYGGYYYWGQGTQVTVSS",
    "polyreactivity (PSR sort gate)": "high polyreactivity"
  },
  {
    "residue codes": "QVQLVESGGGLVQAGGTLRLSCAASGIIFYSNAMGWYRQAPGKEWELVAGISKSGGSTYYADSVKGRFTISRDNAKNNVYLHMNSLKPEDTAVYYCAVRGGGRYRSWGYDYWGQGTQVTVSS",
    "polyreactivity (PSR sort gate)": "high polyreactivity"
  }
]

Query: Given the entry QVQLVESGGGLVQAGGSLRLTCAASGFTFRSYAMGWYRQAPGKEREWVAVISSSGGSTYYADSVKARFTISRDNAKNTVYLQMNSLKPEDTAVYYCNRRPATRAYLYDYWGQGTQVTGSS , report its measured polyreactivity (PSR sort gate).
Reply: high polyreactivity

Query: Query QVQLVESGGGLVQAGGSLRLSCAASGFIFYSNMGWYRQARGKEREFVAAITWRGGSTYADSVKGRFTISRDNAKNTVYLQMNSLKPEDTAVYYCARESYRAHTPGHPSGTRFGYWGQGTQVTVSS next
Reply: high polyreactivity

Query: Query QVQLGESGGGLVQAGGSLRLSCAASGRTCWPYARGWYRQAPGKEMELVAAISRGDRTHYADSVKGRFTISRDNAKKTVYLQMNSLIPEVTAVFYCAADSRYYYYVYKISGDYDSWGQGTHVTVSS next
Reply: low polyreactivity

Query: Query QVQLVESGGGLVQAGGSLRLSCAASGRTFAAYAMGWYRQAPGKERELGAAISIGGSTNYADSVKGRFTISRDNAKNTVYLQMNSLKPEDSAVYYCAAPWYRGGTTESYYWGQGTQVTVSS next
Reply: high polyreactivity

Query: Query QVQLVESGGGLVQAGGSLRLSCAASGITFYRYAMGWYRQAPGKERELVAAISTSGGTTYYADSVKERFTISRDNAKNTVYLQMNSLKPEDTAVYYCAAQYLRWSRMDYWGQGTQVTVSS next
Reply: high polyreactivity

Query: Query QVQLVESGGGLVQAGGSLRLSCAASGSIFASYVMGWYRQAPGKERELVAAITSRGTSTYYADSVKGRFTISRDNAKNTVYLQMNSLKPEDTAVYYCAARLYGSAPQHEYWGQGTQVTVSS next
Reply: low polyreactivity

Query: Query QVQLVESGGGLVQAGGCLRLSCAASGFIFDSNAMGWYRQAPGKERELVAAISRRGGSTYYADSVKGRFTISRDNAKNTVYVHMNSLKPEYTSVYYCNAEYGSHVKYGYWGQGTQVTVSS next
Reply: high polyreactivity

----------
Experiment: yeast display, Sf9 membrane polyspecificity reagent, FACS + sequencing; frameworks hold sequencing errors
measure: polyreactivity (PSR sort gate)

[
  {
    "residue codes": "QVQLVESGGGLVQAGGSLRLSCAASGFTFGIYAMGWYRQAPGKERELVAAITSGGITKYADSVKGRFTISRDNAKNTVYLQMNSLKPEDTAVYYCAATGYRQSYDSTWYRYDYWGQGTQVTVSS",
    "polyreactivity (PSR sort gate)": "low polyreactivity"
  },
  {
    "residue codes": "QVQLVESGGGLVQAGGSLRLSCAASGRIFTPYVMGWYRQAPGKERELVARISWTGSSTYYADSVKGRFTISRDNAKNTVYLQMNSLKPEDTAVYYCAKRLTRFYTRLEYWGQGTQVTVSS",
    "polyreactivity (PSR sort gate)": "low polyreactivity"
  },
  {
    "residue codes": "QVQLVESGGGLVQAGGSLRLSCAASGRTLYGYAMGWYRQAPGKERELVAAISESDGSTYADSVKGRFTISRDNAKNTVYLQMNSLKPEDTAVYYCAADYYWYALQDGYYTYGYTYDYWGQGSQVTVSS",
    "polyreactivity (PSR sort gate)": "low polyreactivity"
  },
  {
    "residue codes": "QVQLVESGGGLVQAGGSLRLSCAASGFTFRYYTMGWYRQAPGKERELVASISRRGGSTYYADSVKGRFTISRDNAKNTVFLQMNSLKPEDTAVYYCNTLSQVFASRAPKFDYWGQGTQVTVSS",
    "polyreactivity (PSR sort gate)": "high polyreactivity"
  },
  {
    "residue codes": "QVQLVESGGGLVQAGGSLRLSCAASGSTFRYYAMGWYRQAPGKERELVASITWSGGSTYYADSVKGRFTISRDNAKNTVYLQMNSLNPEDTAVYYCAARQYIGSPPHRRRFDYWGKGTQVTVSS",
    "polyreactivity (PSR sort gate)": "high polyreactivity"
  },
  {
    "residue codes": "QVQLVESGGGLVQAGGSLRLSCAASGRISVVNAMGWYRQAPGQERELVAAIRRASTNYADSVKGRFTISRDNAKKTVYLQMNSLKPEDTAVYYCAARVYGINIFEYWGQATQVTVSS",
    "polyreactivity (PSR sort gate)": "high polyreactivity"
  },
  {
    "residue codes": "QVQLVEAGLGLVQAGGSLRLSCAASGFIFVANAMVWYRQAPGKERELVAAISFSSTSTRYADSVKGRFTISRDNAKNTVYLQMNSLKPEDTAVYYCAVDLTFSEFDYWGQGTQVTVSS",
    "polyreactivity (PSR sort gate)": "low polyreactivity"
  },
  {
    "residue codes": "QVQLVEYGAALVKAGGSLRLSCAPSGSIFDFYVMGWYRQAPGKERELVAAISSGGSTYYADSVKGRFTISRDNAKNTVYLQMNSLKPEDSAVYYCAAYPEYVSGAWYDYWGLGTQVTVSS",
    "polyreactivity (PSR sort gate)": "low polyreactivity"
  }
]

Query: Given the entry QVQLVESGGGLVQAGGSLRLSCAASGITFVRYAMGWYRQATGKERELVAGISRGGSTNYADSVKGRFTISRDNAKNTVYLQMNSLKPEDTAVYYCNRVFTWRYGYRYEYWGQGTQVTVSS , report its measured polyreactivity (PSR sort gate).
Reply: high polyreactivity

Query: Query QVQLVESGGGLDQAGGSLRLSCAASGSIFRWYAMGWYRQAPGKEREFVAAITSSGGSTYYADSVKGRFTISRDTAKNTVYLQINSVKPEDTAVYYCNRRYQPYSYDYWGEGTQVTVSS next
Reply: high polyreactivity

Query: Query QVQLVESGGGLVQAGGSLRLSCAASGRTLYGYAMGWYRQAPGKERELVAAISESDGSTYADSVKGRFTISRDNAKNTVYLQMNSLKPEDTAVYYCAADYYWYALQDGYYTYGYTYDYWGQGTQVTVSS next
Reply: low polyreactivity

----------
Assay: yeast display, Sf9 membrane polyspecificity reagent, FACS + sequencing; frameworks hold sequencing errors

[
  {
    "residue codes": "QVQLQESGDGLVQAGGSLRLSSAASGTIFSDYGMGGYRQAPGKERELLAGISDGCNTNYTDSVKGRFTISRDNAHRVSADEQPETGGYRGVLLGGSERWLIFYVYWGQGTQVTVSC",
    "polyreactivity (PSR sort gate)": "high polyreactivity"
  },
  {
    "residue codes": "QVQLVESGGGLVQAGGSLRLSCAASGYIFPRYAMGWYRQAPGKERELVAAITGSGGSTYYADSVKGRFTISRDNAKNTVYLQMNSLKPEDTAVYYCNTVYYRSGSQRLDYWGQGTQVTVSS",
    "polyreactivity (PSR sort gate)": "high polyreactivity"
  }
]

----------
Assay: yeast display, Sf9 membrane polyspecificity reagent, FACS + sequencing; frameworks hold sequencing errors
measure: polyreactivity (PSR sort gate)

[
  {
    "residue codes": "QVQLVESGGGLVQAGGSLRLSCAASVRIFDYNAMGWYRQAPGKERELVAAITSGGSTNYADSVKGRFTISRDNAKNTVYLQMNSLKPEDTAVYYCNAEPETTIDYWGQGTQVTVSS",
    "polyreactivity (PSR sort gate)": "low polyreactivity"
  },
  {
    "residue codes": "QVQLVESGGGLVQAGGSLRLSCAASGLTFTTYTMGWYRQAPGKERELVAAISSRGGSTYYADSVKGRFTISRDNAKNTVYLQMNSLKPEDTAVYYFNAPRPHRMDWGQGTQVTVSS",
    "polyreactivity (PSR sort gate)": "high polyreactivity"
  },
  {
    "residue codes": "QVQLVESGGGLVQAGGSLRLSCAASGSTFIENAMGWYRQAPGKERELVAAINRGGTTYYADSVKGRFTISRDNAKNTVYLQMNSLKPEDTAVYYCAADDPSYANRFIHDYWGQGTHVTVSS",
    "polyreactivity (PSR sort gate)": "low polyreactivity"
  },
  {
    "residue codes": "QDQLVDSGGGLVQAGGRLRLSCAASGLTLGSYAMGWSRQAPGQVRELVAAITRGGRSNYADSVKGRFSISRDNAKNTVYLQMYSLKPEDTAVYYCYADGPGYAAKYYWIYDYWGQGTQVTVSS",
    "polyreactivity (PSR sort gate)": "low polyreactivity"
  },
  {
    "residue codes": "QDQLVESGGGLVQAGGSLRLSCAASGLIFGGYDMGWYRQAPGKERELVAAISCDDGDTYYADSVKGRFTISRDNAKNTVYLQMNSLKPEDTAVYYCAAESLSGAHGYWGQGTQVTVSS",
    "polyreactivity (PSR sort gate)": "low polyreactivity"
  },
  {
    "residue codes": "QVQHVESGGGLVQAGGNLRLSCPASGFTIYYYAMVCDRQAPGKERELVAGISKSGGITYYADSVKGRFTISRDNAKNTVYLQMNSLKPEDTAVYYCAAAEWYQFFIYRYTYEYWGQGSQVTVSS",
    "polyreactivity (PSR sort gate)": "low polyreactivity"
  },
  {
    "residue codes": "QVQLVESGGGLVQAGGSLRLSCAASGFIFAVYGMGWYTQAPGKQRELVAAISTGDSTKYADSVKGRFTISRDNAKNTVYLQMNSLNPEDTAVYYCAADGPYEGYDYWGQGTQVTVSS",
    "polyreactivity (PSR sort gate)": "high polyreactivity"
  },
  {
    "residue codes": "QVKLVESGGGLVQAGGSLRLTCAASGRTFARYAMGWSRQEPGKERELVAAISRRGTSTYYADSVKGRFTISRDNAKNTVYLQMNSLKPEDTAVYYCAVDPYLGHYDYWGQGTQVTVSS",
    "polyreactivity (PSR sort gate)": "high polyreactivity"
  }
]

Query: Given the entry QVQLVESGGGLVQAGGSLRLSCAASGSIFPYYAMGWYRQAPGKERELVAAITWSGGGTYYADSVKGRFTISRDNAKNTGYLQMNSLKPEDTAVYYCAASYRYYWFDYWGQGTQVTVSS , report its measured polyreactivity (PSR sort gate).
Reply: high polyreactivity

Query: Query QVQLVESGGGLVQAGGSLRLSCAASGFIFPFYAMGWYRQAPGKERELVAVIRTSSDRTYYADSVKGRFTISRDNAKNTVYLQMNSLKPEDTAVYYCAAETYRLFDYWGQGTQVTVSS next
Reply: low polyreactivity

Query: Query QVQLVESGGGLVQAGGSLRLSCAASGRTFYTYVMGWYRQAPGKEREFVAAITYSGGSTYYADSVKGRFTISRDNAKNTVYLQMNSLKPEDTAVYYCNDEWTYSEWYGQYLEFDYWGQGTQVTVSS next
Reply: high polyreactivity

Value source: the nanobody polyreactivity screen of Harvey et al. (2022)
